Values were extracted from ChEMBL document CHEMBL1201862.

- Test system: COLO 205
- Protocol Summary: NCI tumour cell line growth inhibition, 48 h
Activity calls are given as the source filed them. No stated cut-off is given here; in the data, active = GI50 up to about 1.1 µM and inactive = higher.
Classes used: Y for active, N for inactive

# Compound, Assigned Label
data = [
    ("COc1ccc2c(c1)CC[C@@H]1[C@@H]2CC[C@]2(C)C(=O)/C(=C/c3cc(OC)c(OC)c(OC)c3)C[C@@H]12", "N"),
    ("CC1(C)CC(=O)c2c(nc3c(ccc4ccccc43)c2-c2ccc(NC(=O)CCCCCCCCC(=O)Nc3ccc(-c4c5c(nc6c4ccc4ccccc46)CC(C)(C)CC5=O)cc3)cc2)C1", "N"),
    ("O=C(O)CNc1c2ccccc2[n+]([O-])c2ccccc12", "N"),
    ("C[C@H]1C[C@H](C)c2ccccc2N(C)/C1=N\\c1ccccc1", "N"),
    ("O=C1C=C(O)C(=O)c2c(O)ccc(O)c21", "N"),
    ("CN(C)C(=N)c1ccccc1", "N"),
    ("COc1ccc2c(c1)c1c(C)c3cnccc3c(C)c1n2CCCN", "Y"),
    ("Brc1ccc(-c2cc(-c3ccc4c(c3)OCO4)c(-c3cccs3)n2Cc2ccccc2)cc1", "N"),
    ("CCOC(=O)c1cc(C(O)P2(=O)N(CC(C)(C)C)[C@@H]3CCCC[C@H]3N2CC(C)(C)C)cn1C(=O)OC(C)(C)C (stereo partly specified)", "N"),
    ("COc1ccc(OC(C)C(=O)O)c2c(=O)ccccc12 (stereo unspecified)", "N"),
    ("O=S(=O)(O)c1ccc2c(/N=N/c3ccccc3)c(O)c(S(=O)(=O)O)cc2c1", "N"),
]

* * *

GI50 listing for selected compounds.
- System: SF-268
- Protocol Summary: NCI tumour cell line growth inhibition, 48 h
Active and inactive are the calls of the source. Cut-off read from the data, not from the text of the source: active = GI50 up to about 1.1 µM and inactive = higher.

# Compound, Measured Target, GI50
records = [
    ("C=C1CCc2ccccc2C1=O", "SF-268", "> 100 µM (inactive)"),
    ("COC(=O)c1cc(C)ccc1/C=C1\\Cc2cc(C)c(C)cc2C1=O", "SF-268", "41.1 µM (inactive)"),
    ("CN(C)Cc1cc(C(C)(C)C)cc(CNC2CCCCC2)c1O", "SF-268", "18.7 µM (inactive)"),
    ("COc1ccc(OC)c(C2CCc3c(cnc4nc(N)nc(N)c34)C2)c1 (centres undefined)", "SF-268", "4.21 µM (inactive)"),
    ("Cn1nc(-c2ccccc2)c(C(=O)/C=C/c2ccc(Cl)cc2)c(N2CCOCC2)c1=O", "SF-268", "3.48 µM (inactive)"),
    ("Cc1nc(C)c(N2CCN(C(=O)NC(CCC(=O)O)C(=O)O)CC2)c(O)n1 (centres undefined)", "SF-268", "> 100 µM (inactive)"),
    ("CCOC(=O)/C=C/C1(CCOC(C)=O)CCCCC1", "SF-268", "> 10 µM (inactive)"),
    ("O=C(NCCc1ccccc1)C1C(=O)C(=O)N(CCc2ccccc2)C1=O (centres undefined)", "SF-268", "> 100 µM (inactive)"),
    ("O=C1OC(C2Cc3ccc4ccccc4c3C2=O)c2ccccc21 (centres undefined)", "SF-268", "33.8 µM (inactive)"),
    ("Cc1cn2c(/C=C3/C(=O)Nc4cccc(Cl)c43)c(Cl)nc2s1", "SF-268", "11.3 µM (inactive)"),
    ("C=CCOCn1cc(F)c(=O)[nH]c1=O", "SF-268", "> 100 µM (inactive)"),
    ("COC(=O)CCC(NC(=S)N/N=C(\\C)c1cnccn1)C(=O)OC (centres undefined)", "SF-268", "35.4 µM (inactive)"),
    ("COCCN(C(C)=O)C1CCC2(SCCS2)c2[nH]c3ccccc3c21 (centres undefined)", "SF-268", "> 100 µM (inactive)"),
    ("O=C(CSc1ncnc2[nH]cnc12)c1ccccc1", "SF-268", "> 100 µM (inactive)"),
]

* * *

- System: HOP-92
- Protocol Summary: NCI tumour cell line growth inhibition, 48 h
Activity calls are given as the source filed them. Rule as the data show it: active = GI50 up to about 1.1 µM and inactive = higher.
Possible outcomes: True = active, False = inactive

# Molecule, Assigned Label
measured = [
    ("COC(=O)C1CC2CC(=NNC(N)=O)CC2C1 (stereo not drawn)", "False"),
    ("O=C1OC(C2Cc3ccc4ccccc4c3C2=O)c2ccccc21 (stereo not drawn)", "False"),
    ("COc1ccc2c(c1)CC[C@@H]1[C@@H]2CC[C@]2(C)C(=O)/C(=C/c3cc(OC)c(OC)c(OC)c3)C[C@@H]12", "False"),
    ("COc1nc2ccc(COc3ccc(C(=O)NC(CCC(=O)O)C(=O)O)cc3)cc2nc1OC (stereo not drawn)", "False"),
    ("COC1=C2CC(C)CC(OC)C(OC(=O)CCCN)C(C)/C=C(\\C)C(OC(N)=O)C(OC)/C=C\\C=C(/C)C(=O)NC(=CC1=O)C2=O (stereo not drawn)", "False"),
    ("N#C/N=C(/N)c1sc2nc3c(c(-c4ccc(Br)cc4)c2c1N)CCCC3", "False"),
    ("COc1ccc2nc3cc(Cl)ccc3c(NC(C)CCCN(CCCl)CCCl)c2c1 (stereo not drawn)", "True"),
    ("C=C1C[C@@H]2CC[C@@]34CC5O[C@H]6C(O[C@H]7CC[C@H](CC(=O)O[C@@H]8[C@@H](C)[C@@H]9O[C@@H]%10C[C@]%11(C[C@@H]%12O[C@]%13(C[C@H](C)[C@@H]%14O[C@@H]%15CC(C(O)CO)O[C@@H]%15C[C@@H]%14O%13)C[C@H](C)[C@@H]%12O%11)O[C@@H]%10C[C@@H]9O[C@H]8CC8O[C@@H](CC[C@@H]1O2)C[C@@H](C)C8(O)CO)O[C@@H]7[C@@H]6O3)[C@H]5O4 (stereo partly drawn)", "True"),
    ("Cc1cccc(-c2cc(O)c3cc(C)cnc3n2)c1", "False"),
    ("COc1cc2cc3c4c(cc(OC)c(OC)c4c2cc1OC)CCN3C", "False"),
    ("O=C1/C(=C2/CCCN2)C(c2ccc[nH]2)=NN1c1ccccc1", "False"),
    ("CC(C)NC(=O)OCc1c(COC(=O)NC(C)C)c(-c2cc[n+](COC(=O)C3CC3)cc2)n2c1CCC2", "False"),
    ("Cc1cccc(=O)c([O-])c1.Cc1cccc(=O)c([O-])c1.[Bi+3].[Cl-]", "False"),
]

* * *

- Test system: CCRF-CEM
- Protocol Summary: NCI tumour cell line growth inhibition, 48 h
Activity calls are given as the source filed them. Cut-off read from the data, not from the text of the source: active = GI50 up to about 1.1 µM and inactive = higher.
Outcome Measure: GI50

# Molecule, Val
data = [
    ("Cc1ccc(OCC2OC(n3cnc4nc(N)nc(Cl)c43)CC2Oc2ccc(C)cc2)cc1 (centres undefined)", "45.1 µM (inactive)"),
    ("N#CC1(O)CCCCCCCCCCC1", "> 100 µM (inactive)"),
    ("O=C(O)CC[P+](c1ccccc1)(c1ccccc1)c1ccccc1", "50.7 µM (inactive)"),
    ("CN(C)c1nc2nonc2nc1Nc1ccccc1", "> 100 µM (inactive)"),
]

* * *

- System: SF-539
- Protocol Summary: NCI tumour cell line growth inhibition, 48 h
Calls of active or inactive are those of the source. No stated cut-off is given here; in the data, active = GI50 up to about 1.1 µM and inactive = higher.

# Compound, GI50
records = [
    ("CC(N)(CC(O)(C(F)(F)Cl)C(F)(F)Cl)C(=O)O (centres undefined)", "> 10 µM (inactive)"),
    ("O=Cc1ccc(-c2cccc([N+](=O)[O-])c2)s1", "> 100 µM (inactive)"),
    ("C=C1OC2OC(C)C(NC(=O)OCC(Cl)(Cl)Cl)C(OC(C)=O)C2O1 (centres undefined)", "> 100 µM (inactive)"),
    ("NNC(=O)CSc1nc2ccc(I)cc2c(=O)n1Cc1ccccc1", "19.7 µM (inactive)"),
    ("CCCC(O)C(NC(=O)CCl)C(=O)O (centres undefined)", "> 100 µM (inactive)"),
    ("CC(=O)OC1(C)C(=O)OC/C2=C/CN(C)CCC(OC(=O)C(O)(C(C)Cl)CC1C)C2=O.c1ccccc1 (centres undefined)", "> 100 µM (inactive)"),
    ("O=C(CSc1ncnc2[nH]cnc12)c1ccccc1", "> 100 µM (inactive)"),
    ("C(/C=N/c1ccccc1)=C(/Nc1ccccc1)c1ccc2ccccc2c1", "1.83 µM (inactive)"),
    ("CC(=O)N(C)C=C1C(=O)N(C)C(=O)N(C)C1=O", "> 100 µM (inactive)"),
]

* * *

- Tested on: Malme-3M
- Protocol Summary: NCI tumour cell line growth inhibition, 48 h
Activity calls are given as the source filed them. No stated cut-off is given here; in the data, active = GI50 up to about 1.1 µM and inactive = higher.

# Compound, Measured Target, GI50
measured = [
    ("C1=C(N2CCOCC2)/C(=C2\\SC(=N/c3ccccc3)/C(=N\\c3ccccc3)N2c2ccccc2)CC1", "Malme-3M", "> 100 µM (inactive)"),
    ("O=c1c2cc(Cl)cc(Cl)c2oc2nc3n(c(=O)c12)CCCS3", "Malme-3M", "> 100 µM (inactive)"),
    ("CCOc1cc(/C=N\\N(C)C)cc(/C=N\\N(C)C)c1O", "Malme-3M", "32.4 µM (inactive)"),
    ("CC(=O)OCC1=C(C(=O)O)C(c2ccc3c(c2)OCO3)c2cc3c(cc2O1)OCO3 (stereo not given)", "Malme-3M", "> 100 µM (inactive)"),
    ("Clc1cc2ccccc2c2ccccc12", "Malme-3M", "37 µM (inactive)"),
    ("C[S+]=c1sc2ccccc2s1", "Malme-3M", "> 100 µM (inactive)"),
    ("Cc1ccc(S(=O)(=O)N/N=C2\\C(=O)C3CC2C(Cl)C3Cl)cc1 (stereo not given)", "Malme-3M", "> 100 µM (inactive)"),
    ("COc1ccc2c(c1)CCC/C2=N\\NS(=O)(=O)c1c(C)cc(C)cc1C", "Malme-3M", "24.4 µM (inactive)"),
    ("COC(=O)c1ccccc1C1CN=NC12Cc1ccc3c(c1C2=O)CCC3 (stereo not given)", "Malme-3M", "21.8 µM (inactive)"),
    ("O=C(NCCc1ccccc1)C1C(=O)C(=O)N(CCc2ccccc2)C1=O (stereo not given)", "Malme-3M", "> 100 µM (inactive)"),
    ("COc1cc2c(cc1OCCCCN1C(=O)c3cccc4cccc(c34)C1=O)N=C[C@@H]1CCCN1C2=O", "Malme-3M", "3.72 µM (inactive)"),
    ("CN1CCOC(c2ccc(Cl)cc2)O1 (stereo not given)", "Malme-3M", "> 100 µM (inactive)"),
    ("CCc1ccccc1N1C(=O)C(=O)C(c2nc3ccccc3s2)C(=O)C1=O", "Malme-3M", "> 100 µM (inactive)"),
    ("CC(=O)Oc1c(C)cc(-c2cc(C)c(OC(C)=O)c(C)c2)cc1C", "Malme-3M", "89.3 µM (inactive)"),
    ("CCOC(=O)NC", "Malme-3M", "> 100 µM (inactive)"),
    ("COc1ccc2oc(-c3ccncc3)cc(=O)c2c1", "Malme-3M", "39.8 µM (inactive)"),
    ("C/C=C/C(=O)Oc1cccc2cccnc12", "Malme-3M", "1.45 µM (inactive)"),
    ("CCOC(=O)c1cc(C(O)P2(=O)N(CC(C)(C)C)[C@@H]3CCCC[C@H]3N2CC(C)(C)C)cn1C(=O)OC(C)(C)C (stereo not given in full)", "Malme-3M", "13.7 µM (inactive)"),
    ("NC(=O)C1CCCN1C(=O)C(Cc1c[nH]cn1)NC(=O)C1CCCC1 (stereo not given)", "Malme-3M", "> 100 µM (inactive)"),
    ("CCn1c(SCc2nnc(Nc3ccccc3)s2)nc2ccccc2c1=O", "Malme-3M", "1.46 µM (inactive)"),
    ("NS(=O)(=O)c1ccc(/C=C/c2ccc(O)c(O)c2)cc1", "Malme-3M", "35.3 µM (inactive)"),
    ("CC1=C/C(=N\\NC(N)=S)C(C(O)(C(F)(F)F)C(F)(F)F)C(C)(C)C1 (stereo not given)", "Malme-3M", "> 10 µM (inactive)"),
    ("O=C(O)CNc1c2ccccc2[n+]([O-])c2ccccc12", "Malme-3M", "61.4 µM (inactive)"),
    ("[N-]=[N+]=NC(CBr)c1cn([C@H]2C[C@H](O)[C@@H](CO)O2)c(=O)[nH]c1=O (stereo not given in full)", "Malme-3M", "> 100 µM (inactive)"),
    ("NC(=O)c1ncn2c1NCC1OC2C(O)C1O (stereo not given)", "Malme-3M", "> 100 µM (inactive)"),
]
